Collected pKd values appear next to each entry.
# target system: T1, DLG3_2, Q92796
# T1 sequence (Q92796 221-321, limits assumed, looked up): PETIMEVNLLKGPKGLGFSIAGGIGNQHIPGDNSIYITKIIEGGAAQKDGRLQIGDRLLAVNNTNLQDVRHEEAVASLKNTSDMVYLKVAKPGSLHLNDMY
# assay details: holdup assay
# Set-up: key: below the threshold = too weak to quantify, mostly under pKd 3.1 to 4
# experimental context: plain residues with an end cap or a label only (N-terminal biotin on a linker: ado-ado)

# binder, pKd
rows = [
    ("RDYTQSSSSL [GRM5, P41594]", 3.96),
    ("SRPHTNETSL [MCC, P23508]", 3.72),
    ("DAAHHDESNC [FMNL3, Q8IVF7]", 4.09),
    ("QRYPGNQTTC [CCL24, O00175]", 4.26),
    ("KLQNPNQSVV [TYRP1, P17643]", 3.86),
    ("GVHSNDHSVV [LPAR1, Q92633]", 4.42),
    ("NISARRFTLC [FAM167B, Q9BTA0]", 4.42),
    ("THHRKIHTRV [ZNF599, Q96NL3]", 5.26),
    ("IQISELETNV [SLC1A7, O00341]", 4.66),
    ("DFKHTKSFII [JAM2, P57087]", 4.2),
    ("QKNKDREYYV [NRXN3, Q9HDB5]", 3.65),
    ("EPAKETTTNV [SLC2A3, P11169]", 4.15),
    ("LPPPESESKV [KCNJ9, Q92806]", 4.23),
    ("IGHEDLETAV [DGKI, O75912]", 4.8),
    ("GNDPDRGTSI [GRID2, O43424]", 4.25),
    ("TKDKVQETQI [LRRC4, Q9HBW1]", 4.57),
    ("GQNMTVSVVI [PRLHR, P49683]", 4.31),
    ("VKQYADVEGF [HNRNPK, P61978;P61978-2]", 4.09),
    ("DSEEELPTRL [GRK6, P43250]", 3.66),
    ("QKASRNESTF [POLR1D, P0DPB6]", 4.23),
    ("HYPASPDSWV [CTNND2, Q9UQB3]", 4.3),
    ("GDSSRKEYFI [GYPC, P04921]", 4.19),
    ("EFKQTSSFLV [JAM1, Q9Y624]", 4.2),
]
